Reference for the values: patent US20020147129A1

# assayed-target: embryonic chicken Ang II receptor (chicken)
# Sequence (P79785 whole entry): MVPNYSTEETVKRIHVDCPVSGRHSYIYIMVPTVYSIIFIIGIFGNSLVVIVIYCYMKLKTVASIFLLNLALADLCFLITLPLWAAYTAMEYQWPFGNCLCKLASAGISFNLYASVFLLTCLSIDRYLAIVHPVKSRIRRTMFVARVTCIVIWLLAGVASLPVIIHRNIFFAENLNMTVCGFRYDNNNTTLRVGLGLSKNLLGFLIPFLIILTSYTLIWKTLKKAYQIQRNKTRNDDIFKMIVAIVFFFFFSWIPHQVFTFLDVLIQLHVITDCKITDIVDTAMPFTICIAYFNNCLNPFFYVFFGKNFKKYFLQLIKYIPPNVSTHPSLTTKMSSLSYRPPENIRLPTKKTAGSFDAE
# experimental-details: competition for 125I[Sar1Ile8]Ang II binding, E13 chicken chorioallantoic membranes
pIC50: −log10 of the molar value. Where no end group is shown, it is not given here. [ ]: non-standard residue; d: D form. Nle = CCCC[C@H](N)C(=O)O

[
  {
    "binder": "[Nle]YIHPF [Nle^1-AIV]",
    "pIC50": 5.10
  }
]
